Test system: Neisseria meningitidis
protocol notes: Expected efficacy of antibiotic agents
condition set: expected efficacy against Neisseria meningitidis
outcome measure: Efficacy

Check out these entries, answers already filled in.
C/C(=C\C(=O)OCCCCCCCCC(=O)O)C[C@@H]1OC[C@H](C[C@@H]2O[C@H]2[C@@H](C)[C@H](C)O)[C@@H](O)[C@H]1O | no
CC[C@H]1OC(=O)[C@H](C)[C@@H](O[C@H]2C[C@@](C)(OC)[C@@H](O)[C@H](C)O2)[C@H](C)[C@@H](O[C@@H]2O[C@H](C)C[C@H](N(C)C)[C@H]2O)[C@](C)(O)C[C@@H](C)CN(C)[C@H](C)[C@@H](O)[C@]1(C)O | yes
O=C(O)c1cn(C2CC2)c2cc(N3CCNCC3)c(F)cc2c1=O | yes
CN[C@H](CC(C)C)C(=O)N[C@H]1C(=O)N[C@@H](CC(N)=O)C(=O)N[C@H]2C(=O)N[C@H]3C(=O)N[C@H](C(=O)N[C@H](C(=O)O)c4cc(O)cc(O)c4-c4cc3ccc4O)[C@H](O)c3ccc(c(Cl)c3)Oc3cc2cc(c3O[C@@H]2O[C@H](CO)[C@@H](O)[C@H](O)[C@H]2O[C@H]2C[C@](C)(N)[C@H](O)[C@H](C)O2)Oc2ccc(cc2Cl)[C@H]1O | no
CO/N=C(\C(=O)N[C@@H]1C(=O)N2C(C(=O)O)=C(CSc3nc(=O)c(=O)[nH]n3C)CS[C@H]12)c1csc(N)n1 | yes

Here is the next item to consider.
Could you share which Efficacy value was measured for NC[C@H]1O[C@H](O[C@H]2[C@H](O)[C@@H](O[C@H]3O[C@H](CO)[C@@H](O)[C@H](N)[C@H]3O)[C@H](N)C[C@@H]2N)[C@H](N)C[C@@H]1O ?
no

Values from patent US20170173002A1
